This collection of values is drawn from ChEMBL document CHEMBL3988442.

Study System: Ubiquitin-activating enzyme e1, putative (Leishmania donovani (strain BPK282A1)) (UniProt E9BSI1)
Sequence (E9BSI1 as listed by the source): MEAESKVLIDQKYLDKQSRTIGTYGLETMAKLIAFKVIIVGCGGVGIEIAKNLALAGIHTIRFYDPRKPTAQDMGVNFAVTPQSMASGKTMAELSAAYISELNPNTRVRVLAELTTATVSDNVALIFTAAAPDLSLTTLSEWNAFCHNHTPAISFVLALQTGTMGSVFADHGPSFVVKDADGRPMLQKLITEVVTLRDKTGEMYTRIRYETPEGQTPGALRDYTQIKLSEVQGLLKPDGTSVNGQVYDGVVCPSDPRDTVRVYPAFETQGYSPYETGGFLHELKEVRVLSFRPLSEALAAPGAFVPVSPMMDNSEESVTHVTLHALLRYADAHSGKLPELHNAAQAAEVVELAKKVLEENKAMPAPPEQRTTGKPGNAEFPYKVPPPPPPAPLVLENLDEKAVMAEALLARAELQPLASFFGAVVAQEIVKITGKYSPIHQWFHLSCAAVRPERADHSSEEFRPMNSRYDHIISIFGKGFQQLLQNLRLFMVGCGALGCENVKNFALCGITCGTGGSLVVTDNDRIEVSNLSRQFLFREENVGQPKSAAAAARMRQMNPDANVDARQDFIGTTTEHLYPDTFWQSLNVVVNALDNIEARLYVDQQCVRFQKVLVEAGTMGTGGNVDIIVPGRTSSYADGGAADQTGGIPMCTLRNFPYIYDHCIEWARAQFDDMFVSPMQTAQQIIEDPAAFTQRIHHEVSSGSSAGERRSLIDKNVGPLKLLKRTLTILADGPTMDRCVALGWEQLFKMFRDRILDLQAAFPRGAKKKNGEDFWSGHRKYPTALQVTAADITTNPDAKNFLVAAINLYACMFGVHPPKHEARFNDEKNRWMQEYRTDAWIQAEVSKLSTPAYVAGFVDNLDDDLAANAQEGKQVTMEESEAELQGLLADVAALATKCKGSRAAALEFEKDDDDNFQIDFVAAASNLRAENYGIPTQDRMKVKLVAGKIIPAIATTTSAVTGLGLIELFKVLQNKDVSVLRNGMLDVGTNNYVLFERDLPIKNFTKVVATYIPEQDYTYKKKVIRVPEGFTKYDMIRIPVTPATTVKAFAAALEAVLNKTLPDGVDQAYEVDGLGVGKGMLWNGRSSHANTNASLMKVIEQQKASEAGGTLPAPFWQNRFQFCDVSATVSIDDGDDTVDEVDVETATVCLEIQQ
Method Notes: Leishmania donovani Ubiquitin Activating Enzyme (LdE1)
Format: functional
Design: scale not given: direction of the effect not stated beside the values
Setup Conditions: 30 µM
Measured potencies and affinities stand elsewhere.
Can you tell me Percent Effect for the items I'm about to list?
Numbers only, in %.

Here is how some compounds turned out for Percent Effect.
{"Compound": "Cc1ccc(-c2ncc(C(=O)NCCNc3ncccn3)s2)c(C)c1", "Measure Unit": "%", "Percent Effect": 5.41}
{"Compound": "Cc1ccc(S(=O)(=O)Nc2ccc(=O)n(C)c2)cc1", "Measure Unit": "%", "Percent Effect": 20.2}
{"Compound": "CCc1nc(CC(=O)N2CCn3c(nnc3C(F)(F)F)C2)cs1", "Measure Unit": "%", "Percent Effect": 0}
{"Compound": "CCOC(=O)C1CCCN(c2ccc(-c3nc(C)no3)cn2)C1 (stereo unspecified)", "Measure Unit": "%", "Percent Effect": 8}
{"Compound": "Cc1cnn(CC2CCCN2C(=O)c2cnc3n[nH]c(C)c3c2)c1 (stereo unspecified)", "Measure Unit": "%", "Percent Effect": 16.5}
{"Compound": "Cn1cc(CCNC(=O)CCc2ccc3c(c2)OCO3)cn1", "Measure Unit": "%", "Percent Effect": 16.2}
{"Compound": "CCCc1nc(N2Cc3cnn(Cc4ccc(F)cc4)c3C2)no1", "Measure Unit": "%", "Percent Effect": 5.33}
{"Compound": "O=C([C@H]1CN(CCc2ccccc2)C[C@H]2OCC[C@@H]12)N1CCCO1", "Measure Unit": "%", "Percent Effect": 18.7}
{"Compound": "Cc1ccc(N2CCCC(NCc3cccc4c3OCCO4)C2)nn1 (stereo unspecified)", "Measure Unit": "%", "Percent Effect": 16.2}
{"Compound": "Cn1cc(C2CCCN2C(=O)CCCOCc2ccccc2)cn1 (stereo unspecified)", "Measure Unit": "%", "Percent Effect": 10.1}

Turning to the following compound.
Exercise: // lookup Percent Effect for CCc1ccc(C2CCCCCN2Cc2nc(CCOC)no2)o1 (stereo unspecified)
Key: 2.6
